target: ALAS/ALAS (single chain dimeric ALAS) (Mus musculus, UniProt P08680); assay: dissociation constant for ALA binding
Sequence (P08680 50-587): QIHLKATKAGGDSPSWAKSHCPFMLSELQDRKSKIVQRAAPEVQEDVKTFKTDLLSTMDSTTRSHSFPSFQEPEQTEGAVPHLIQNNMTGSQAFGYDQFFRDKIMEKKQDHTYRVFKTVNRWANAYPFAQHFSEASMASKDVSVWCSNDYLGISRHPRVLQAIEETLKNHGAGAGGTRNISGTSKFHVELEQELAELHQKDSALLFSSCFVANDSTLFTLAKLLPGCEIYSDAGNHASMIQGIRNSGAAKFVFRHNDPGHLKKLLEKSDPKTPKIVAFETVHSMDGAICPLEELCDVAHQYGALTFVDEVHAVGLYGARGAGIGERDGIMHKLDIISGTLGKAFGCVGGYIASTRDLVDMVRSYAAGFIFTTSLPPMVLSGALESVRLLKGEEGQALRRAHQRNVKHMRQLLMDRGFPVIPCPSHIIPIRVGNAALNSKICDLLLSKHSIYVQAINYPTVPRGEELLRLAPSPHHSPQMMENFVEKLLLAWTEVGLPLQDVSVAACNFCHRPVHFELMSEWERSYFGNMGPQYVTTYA
measured quantity: Kd (µM)
Numbers only; they are read as µM.

Per the record, NCC(=O)CCC(=O)O [ALA, 5-aminolevulinate] has Kd of 1.46
